Molecular target: biotinylated HER3 extracellular domain (ECD) (UniProt P21860 20-643, biotin on the C-terminal BirA biotinylation site)
Sequence (P21860 20-643): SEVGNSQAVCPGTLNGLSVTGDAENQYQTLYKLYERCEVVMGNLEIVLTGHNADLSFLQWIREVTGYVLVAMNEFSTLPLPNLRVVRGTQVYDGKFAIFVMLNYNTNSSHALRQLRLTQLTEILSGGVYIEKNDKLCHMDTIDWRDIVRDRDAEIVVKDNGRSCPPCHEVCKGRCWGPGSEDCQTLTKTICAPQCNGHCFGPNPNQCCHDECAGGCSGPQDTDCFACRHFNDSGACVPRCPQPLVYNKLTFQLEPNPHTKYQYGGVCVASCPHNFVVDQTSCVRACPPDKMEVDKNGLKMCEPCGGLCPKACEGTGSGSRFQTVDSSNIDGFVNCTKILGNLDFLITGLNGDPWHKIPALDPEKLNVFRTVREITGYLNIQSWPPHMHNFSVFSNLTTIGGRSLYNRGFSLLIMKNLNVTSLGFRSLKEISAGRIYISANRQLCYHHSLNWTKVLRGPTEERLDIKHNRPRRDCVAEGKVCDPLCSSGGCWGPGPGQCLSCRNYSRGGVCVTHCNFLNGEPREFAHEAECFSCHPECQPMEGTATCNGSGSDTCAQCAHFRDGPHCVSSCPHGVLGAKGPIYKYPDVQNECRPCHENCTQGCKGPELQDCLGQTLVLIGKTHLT
Test: ELISA
measured_metric: pKd
// pKd: -log10(molar conc.)

Tell me the measured pKd of Heregulin-β1 (Hrgβ1) (ligand) TSHLVKCAEKEKTFCVNGGECFMVKDLSNPSRYLCKCPNEFTGDRCQNYVMASFYKHLGIEFMEAEELYQK , please.
7.90
